# Test system: A549 NSCLC
# assay_info: NCI tumour cell line growth inhibition, 48 h
TGI values, listed per item
readout_kind: TGI

> print(dat)
                                   molecule  experimental.system  recorded.value
1  Cc1cc(NNC(=O)c2ccccc2O)nc(Nc2nc3ccccc3o2)n1           A549 NSCLC         10.3 µM
2  COc1ccc(NC(=O)CCc2cc(C(C)(C)C)n[nH]2)cc1           A549 NSCLC        > 100 µM
3  CN1CCN(Cc2ccc(NC(=O)c3cncc(C#Cc4cnn5ccccc45)c3)cc2C(F)(F)F)CC1           A549 NSCLC         3.56 µM
4  O=C(Nc1cccnc1)c1ccc2ccc3ccc(C(=O)Nc4cccnc4)nc3c2n1           A549 NSCLC        > 100 µM
5  O=C(O)C12C3CCC(O3)C1(C(=O)O)C1CCC2O1 (stereo not given)           A549 NSCLC        > 100 µM
